tested on: wheat; experiment: Post-emergence herbicidal activity against cereal crops (wheat) +/- safener, crop selectivity; assay type: in vivo; details: 250 g/ha, plus safener cloquintocet-mexyl (CQC) applied at 50 g/ha, 100%=total damage to plant, 0%=no damage
readout label: Post-emergence herbicidal activity against wheat (percentage phytotoxicity), +CQC (%)
State the answer as a number, implicitly in %.

Answer with reported Post-emergence herbicidal activity against wheat (percentage phytotoxicity), +CQC of Cc1cc(C)c(C2C(=O)CC(CCNS(=O)(=O)C(C)C)C2=O)c(C)c1 (centres unmarked) [Compound A77]
10

Read off the recorded Post-emergence herbicidal activity against wheat (percentage phytotoxicity), +CQC for Cc1cc(-n2cc(Cl)cn2)cc(C)c1C1C(=O)CC(CCNC(=O)C2=NOC(C)(C)C2)C1=O (centres unmarked) [Compound A43]
50

Recall and state the measured Post-emergence herbicidal activity against wheat (percentage phytotoxicity), +CQC for Cc1cc(C)c(C2C(=O)CC(CCNS(=O)(=O)c3ccccc3C(F)(F)F)C2=O)c(C)c1 (centres unmarked) [Compound A86] .
0

Recall and state the measured Post-emergence herbicidal activity against wheat (percentage phytotoxicity), +CQC for CONC(=O)NCCC1CC(=O)C(c2c(C)cc(C)cc2C)C1=O (centres unmarked) [Compound A18] .
0

Specify Post-emergence herbicidal activity against wheat (percentage phytotoxicity), +CQC for Cc1cc(-n2cc(Cl)cn2)cc(C)c1C1C(=O)CC(CCNC(=O)Nc2ccccn2)C1=O.Cl (centres unmarked) [Compound A13] and stop.
40

Item CC(=NOCc1ccccc1)C(=O)NCCC1CC(=O)C(c2c(C)cc(C)cc2C)C1=O (centres unmarked) [Compound A44] : provide Post-emergence herbicidal activity against wheat (percentage phytotoxicity), +CQC
10

Please report Post-emergence herbicidal activity against wheat (percentage phytotoxicity), +CQC for the following compound: Cc1cc(-n2cc(Cl)cn2)cc(C)c1C1C(=O)CC(CCNS(=O)(=O)c2ccc(Cl)cc2)C1=O (centres unmarked) [Compound A37]
10

Return Post-emergence herbicidal activity against wheat (percentage phytotoxicity), +CQC (reported value) for this compound: Cc1cc(C)c(C2C(=O)CC(CCNS(=O)(=O)c3ccc(F)cc3)C2=O)c(C)c1 (centres unmarked) [Compound A73]
10
